target or system: recombinant EphB4 (Homo sapiens)
Construct: amino acids 563-987; Swiss-Prot Acc; No. P54760
Sequence (P54760 563-987): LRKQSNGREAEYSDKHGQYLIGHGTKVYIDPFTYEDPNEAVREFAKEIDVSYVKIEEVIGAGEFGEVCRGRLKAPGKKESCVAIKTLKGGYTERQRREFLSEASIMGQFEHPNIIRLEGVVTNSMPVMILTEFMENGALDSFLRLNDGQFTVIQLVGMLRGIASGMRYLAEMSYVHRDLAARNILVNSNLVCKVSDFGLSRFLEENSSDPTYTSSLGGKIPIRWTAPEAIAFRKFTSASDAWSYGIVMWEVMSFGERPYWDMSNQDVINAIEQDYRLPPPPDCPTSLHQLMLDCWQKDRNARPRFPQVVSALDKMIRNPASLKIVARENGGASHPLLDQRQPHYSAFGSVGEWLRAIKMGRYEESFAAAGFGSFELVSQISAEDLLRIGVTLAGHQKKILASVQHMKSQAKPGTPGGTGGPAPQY
method description: In vitro EphB4 enzyme assay (Alphascreen)
Task for the reader: assign each of the following molecules its reported pIC50.
// pIC50 here means minus log10 of the molar concentration (mol/L)

Exercise: If you can, please state the reported pIC50 value of "CN1CCN(c2cc(Nc3nccc(N(C)c4ccc(F)c(Cl)c4F)n3)cc(N3CCOCC3)c2)CC1" .
Solution: 6.37

Exercise: Continue with "COc1ccc(CO)c(N(C)c2ccnc(Nc3cc(N4CCOCC4)cc(N4CCOCC4)c3)n2)c1"
Solution: 7.99

Exercise: Continue with "COCCN(c1ccnc(Nc2cc(N3CCOCC3)cc(N3CCOCC3)c2)n1)c1cc(OC)ccc1C"
Solution: 5.83

Exercise: Continue with "Cc1ccc(CO)cc1N(CCO)c1ccnc(Nc2cc(N3CCOCC3)cc(N3CCOCC3)c2)n1"
Solution: 7.60

---

Task for the reader: assign each of the following molecules its reported log10(IC50).
target or system: recombinant EphB4 (Homo sapiens, UniProt P54760)
Construct: amino acids 563-987; Swiss-Prot Acc; No. P54760
Sequence (P54760 563-987): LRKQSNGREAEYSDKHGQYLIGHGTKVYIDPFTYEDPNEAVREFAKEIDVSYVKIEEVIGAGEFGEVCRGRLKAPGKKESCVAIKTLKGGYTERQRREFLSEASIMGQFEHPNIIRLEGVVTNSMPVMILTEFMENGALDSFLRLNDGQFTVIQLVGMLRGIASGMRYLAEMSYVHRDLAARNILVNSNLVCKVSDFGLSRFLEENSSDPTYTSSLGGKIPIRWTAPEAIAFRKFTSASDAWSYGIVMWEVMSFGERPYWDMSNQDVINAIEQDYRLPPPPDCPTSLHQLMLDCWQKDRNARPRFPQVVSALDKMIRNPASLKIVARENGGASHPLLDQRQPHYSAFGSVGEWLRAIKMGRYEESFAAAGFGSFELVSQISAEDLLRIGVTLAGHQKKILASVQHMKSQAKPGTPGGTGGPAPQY
method description: In vitro EphB4 enzyme assay (Alphascreen)
Each number you see is log10 of IC50, and the unit inside the log is nM.

Exercise: If you can, please state the reported log10(IC50) value of "COc1ccc(C)c(N(C)c2ccnc(Nc3cc(N4CCOCC4)cc(N4CCOC[C@@H]4C)c3)n2)c1" .
Solution: 0.76

Exercise: Continue with "Cc1cc(C)c(N(C)c2ccnc(Nc3cc(N4CCOCC4)cc(N4CCOCC4)c3)n2)c(C)c1"
Solution: 2.91

Exercise: Continue with "CN1CCN(c2cc(Nc3nccc(N(C)c4ccc(F)c(Cl)c4F)n3)cc(S(C)(=O)=O)c2)CC1"
Solution: 1.81

Exercise: Continue with "COc1ccc(NC(C)=O)c(N(C)c2ccnc(Nc3cc(N4CCOCC4)cc(S(C)(=O)=O)c3)n2)c1"
Solution: 2.63

Exercise: Continue with "COc1ccc(C)c(N(C)c2ccnc(Nc3cc(N4CCOCC4)cc(N4CCC(O)CC4)c3)n2)c1"
Solution: 0.47

Exercise: Continue with "CN(c1ccnc(Nc2cc(N3CCOCC3)cc(N3CCOCC3)c2)n1)c1cc(CO)ccc1Cl"
Solution: 2.18

Exercise: Continue with "COc1ccc(NC(C)=O)c(N(C)c2ccnc(Nc3cc(N4CCOCC4)cc(N4CCOCC4)c3)n2)c1"
Solution: 2.67

Exercise: Continue with "Cc1ccc(CO)cc1N(CC1CC1)c1ccnc(Nc2cc(N3CCOCC3)cc(S(C)(=O)=O)c2)n1"
Solution: 3.03

Exercise: Continue with "Cc1cccc(Cl)c1N(C)c1ccnc(Nc2cc(N3CCOCC3)cc(N3CCOCC3)c2)n1"
Solution: 3.24

Exercise: Continue with "CN(c1cccc(C#N)c1)c1ccnc(Nc2cc(N3CCOCC3)cc(N3CCOCC3)c2)n1"
Solution: 2.72

Exercise: Continue with "COc1cc(Nc2nccc(N(C)c3ccc(F)c(Cl)c3F)n2)cc(N2CCOCC2)c1"
Solution: 2.54

Exercise: Continue with "Cc1ccc(CO)cc1N(CC(C)C)c1ccnc(Nc2cc(N3CCOCC3)cc(S(C)(=O)=O)c2)n1"
Solution: 2.96

Exercise: Continue with "Cc1ccc(CO)cc1N(C)c1ccnc(Nc2cc(CO)cc(N3CCOCC3)c2)n1"
Solution: 1.51

Exercise: Continue with "CCCOc1cc(Nc2nccc(N(C)c3cc(CO)ccc3C)n2)cc(N2CCOCC2)c1"
Solution: 2.42

Exercise: Continue with "CN(c1ccnc(Nc2cc(N3CCOCC3)cc(N3CCOCC3)c2)n1)c1ccc(F)c(Cl)c1F"
Solution: 2.92

Exercise: Continue with "COc1ccc(C)cc1N(C)c1ccnc(Nc2cc(N3CCOCC3)cc(N3CCOCC3)c2)n1"
Solution: 2.86

---

Task for the reader: assign each of the following compounds its reported pIC50.
target or system: recombinant EphB4 (Homo sapiens)
Construct: amino acids 563-987; Swiss-Prot Acc; No. P54760
method description: In vitro EphB4 enzyme assay (Alphascreen)
// pIC50 here means minus log10 of the molar concentration (mol/L)

Exercise: If you can, please state the reported pIC50 value of CN(c1ccnc(Nc2cc(N3CCOCC3)cc(N3CCSCC3)c2)n1)c1ccc(F)c(Cl)c1F [Example 1] .
Solution: 6.12

Exercise: Continue with Cc1ccc(CO)cc1N(C)c1ccnc(Nc2cc(OCC3CC3)cc(N3CCOCC3)c2)n1 [Example 17.4]
Solution: 5.96

Exercise: Continue with CN(c1ccnc(Nc2cc(CN3CCOCC3)cc(N3CCOCC3)c2)n1)c1ccc(F)c(Cl)c1F [Example 2.16]
Solution: 6.51

Exercise: Continue with CN(c1ccnc(Nc2cc(N3CCC(O)CC3)cc(S(C)(=O)=O)c2)n1)c1ccc(F)c(Cl)c1F [Example 2.11]
Solution: 6.97

Exercise: Continue with CN(c1ccnc(Nc2cc(N3CCOCC3)cc(N3CCOCC3)c2)n1)c1cc(CO)ccc1F [Example 25.3]
Solution: 7.94

Exercise: Continue with CN(C)C(=O)c1cc(Nc2nccc(N(C)c3ccc(F)c(Cl)c3F)n2)cc(N2CCOCC2)c1 [Example 2.8]
Solution: 6.47

Exercise: Continue with CN(c1ccnc(Nc2cc(N3CCOCC3)cc(N3CCOCC3)c2)n1)c1cccc(CO)c1F [Example 25.4]
Solution: 7.94

Exercise: Continue with CN(c1ccnc(Nc2cc(N3CCOCC3)cc(N3CCOCC3)c2)n1)c1cc(Cl)ccc1CO [Example 25.8]
Solution: 8.19

Exercise: Continue with COc1ccc(C)c(N(C)c2ccnc(Nc3cc(N4CCNCC4)cc(N4CCOCC4)c3)n2)c1 [Example 12.6]
Solution: 8.47

Exercise: Continue with CN(c1cccc(Cl)c1)c1ccnc(Nc2cc(C(=O)N3CCC(O)CC3)cc(N3CCOCC3)c2)n1 [Example 19.12]
Solution: 6.63

Exercise: Continue with CN(c1cccc(Cl)c1)c1ccnc(Nc2cc(C(=O)N3CC[C@@H](O)C3)cc(N3CCOCC3)c2)n1 [Example 19.22]
Solution: 6.92

Exercise: Continue with CN(c1ccnc(Nc2cc(N3CCOCC3)cc(N3CCOCC3)c2)n1)c1ccccc1F [Example 10.16]
Solution: 6.63

Exercise: Continue with COc1ccc(C)c(N(C)c2ccnc(Nc3cc(C(=O)N(C)C)cc(N4CCOCC4)c3)n2)c1 [Example 12.3]
Solution: 6.34

Exercise: Continue with CN(C)C(=O)c1cc(Nc2nccc(N(C)c3cccc(Cl)c3)n2)cc(N2CCOCC2)c1 [Example 19.1]
Solution: 6.38

Exercise: Continue with CCN(c1ccnc(Nc2cc(N3CCOCC3)cc(S(C)(=O)=O)c2)n1)c1cc(CO)ccc1C [Example 8.1]
Solution: 6.38

Exercise: Continue with CN(c1ccnc(Nc2cc(N3CCOCC3)cc(S(C)(=O)=O)c2)n1)c1ccc(F)c(Cl)c1F [Example 2.6]
Solution: 6.35

Exercise: Continue with Cc1ccc(CO)cc1N(C)c1ccnc(Nc2cc(C(=O)N(C)C(C)C)cc(N3CCOCC3)c2)n1 [Example 18.6]
Solution: 6.47

Exercise: Continue with COc1ccc(C)c(N(CCO)c2ccnc(Nc3cc(N4CCOCC4)cc(N4CCOCC4)c3)n2)c1 [Example 22.4]
Solution: 6.10

Exercise: Continue with CN1CCN(c2cccc(Nc3nccc(N(C)c4ccc(F)c(Cl)c4F)n3)c2)CC1 [Example 4]
Solution: 7.20

Exercise: Continue with CN(c1ccnc(Nc2cc(N3CCOCC3)cc(N3CCOCC3)c2)n1)c1cccc(Cl)c1C#N [Example 15.6]
Solution: 6.38

Exercise: Continue with COc1cc(N(C)c2ccnc(Nc3cc(N4CCOCC4)cc(N4CCOCC4)c3)n2)ccc1C [Example 15.10]
Solution: 5.11

Exercise: Continue with COCc1cc(Nc2nccc(N(C)c3ccc(F)c(Cl)c3F)n2)cc(N2CCOCC2)c1 [Example 2.14]
Solution: 6.19

Exercise: Continue with COCCOc1cc(Nc2nccc(N(C)c3ccc(F)c(Cl)c3F)n2)cc(N2CCOCC2)c1 [Example 2.9]
Solution: 6.11

Exercise: Continue with COCCNC(=O)c1cc(Nc2nccc(N(C)c3cccc(Cl)c3)n2)cc(N2CCOCC2)c1 [Example 19.18]
Solution: 6.21

Exercise: Continue with CN(c1cccc(Cl)c1)c1ccnc(Nc2cc(C(=O)NC3CCC3)cc(N3CCOCC3)c2)n1 [Example 19.13]
Solution: 5.68

Exercise: Continue with COc1ccc(C)c(N(C)c2ccnc(Nc3cc(N4CCOCC4)cc(S(C)(=O)=O)c3)n2)c1 [Example 12.2]
Solution: 7.53

Exercise: Continue with CN(c1ccc(F)c(Cl)c1)c1ccnc(Nc2cc(N3CCOCC3)cc(N3CCOCC3)c2)n1 [Example 15.22]
Solution: 6.50

Exercise: Continue with CN(c1ccc(C#N)cc1)c1ccnc(Nc2cc(N3CCOCC3)cc(N3CCOCC3)c2)n1 [Example 10.17]
Solution: 5.01

Exercise: Continue with Cc1ccc(CO)cc1N(C)c1ccnc(Nc2cc(C(=O)N3CCCC3)cc(N3CCOCC3)c2)n1 [Example 18.2]
Solution: 7.21

Exercise: Continue with CC(C)OCc1cc(Nc2nccc(N(C)c3ccc(F)c(Cl)c3F)n2)cc(N2CCOCC2)c1 [Example 2.15]
Solution: 5.95

Exercise: Continue with CN(c1cccc(Cl)c1)c1ccnc(Nc2cc(C(=O)NCC3CC3)cc(N3CCOCC3)c2)n1 [Example 19.16]
Solution: 5.71
